# credit: ChEMBL document CHEMBL3112586

- Test system: MCF7
- Test Summary: Cytotoxicity against human MCF7 cells after 72 hrs by MTT assay
- Assay type: functional, cell-based
- Test Parameters: MCF7, 72 h
Readout Type: IC50 (µM)

[[record]]
mol = "CCOC(=O)/C=C/c1ccc(O)c(/C(=C/c2ccc(OC(C)=O)cc2)C(=O)OCC)c1"
endpoint_result = 0.82

[[record]]
mol = "CCOC(=O)/C=C/c1ccc(O)c(/C(=C/c2ccc(O)cc2)C(=O)OCC)c1"
endpoint_result = 3.27


---

- Test system: MCF7
- Test Summary: Cytotoxicity against human MCF7 cells after 48 hrs by MTT assay
- Format: functional, cell-based
- Test Parameters: MCF7, 48 h
pIC50: −log10 of the molar value.
Readout Type: pIC50

[[record]]
mol = "CCOC(=O)/C=C/c1ccc(O)c(/C(=C/c2ccc(OC(C)=O)cc2)C(=O)OCC)c1"
readout_type = "pIC50"
endpoint_result = 5.02

[[record]]
mol = "CCOC(=O)/C=C/c1ccc(O)c(/C(=C/c2ccc(O)cc2)C(=O)OCC)c1"
readout_type = "pIC50"
endpoint_result = 5.03

